test: Single dose pharmacokinetic study after oral and intravenous administration in male rats (serum, HPLC-UV); assay type: in vivo, Sprague-Dawley rats; settings: male, Sprague-Dawley, rat, serum, iv, 18 mg/kg, intravenous 18 mg kg^−1, male rats, two-compartment model; read-out: T 1/2 (α) distribution half-life (converted)
observable: half-life (min)
Could you give me the number in min? Just the number is fine.

Data request: State the recorded half-life for this entry: C=C(c1ccc(OC(C)(C)CO)cc1)C1COC2(OO1)C1CC3CC(C1)CC2C3 (stereo not shown)
Data returned: 27

###

experiment: Single dose pharmacokinetic study after oral and intravenous administration in male rats (serum, HPLC-UV); type: in vivo, Sprague-Dawley rats; settings: Sprague-Dawley, rat; intravenous 18 mg kg^−1, male rats, serum
observable: AUC(0-inf) (ng·h/mL)
Could you give me the number in ng·h/mL? Just the number is fine.

Data request: State the recorded AUC(0-inf) for this entry: C=C(c1ccc(OC(C)(C)CO)cc1)C1COC2(OO1)C1CC3CC(C1)CC2C3 (stereo not shown) [97/63]
Data returned: 2030

###

assay: Single dose pharmacokinetic study after oral and intravenous administration in male rats (serum, HPLC-UV); assay type: in vivo, Sprague-Dawley rats; settings: male, Sprague-Dawley, rat, serum, po, 72 mg/kg, oral 72 mg kg^−1, male rats, two-compartment model; read-out: T 1/2 (α) distribution half-life (converted)
observable: half-life (min)
Could you give me the number in min? Just the number is fine.

Data request: State the recorded half-life for this entry: C=C(c1ccc(OC(C)(C)CO)cc1)C1COC2(OO1)C1CC3CC(C1)CC2C3 (stereo not shown) [97/63]
Data returned: 50.4

###

experiment: Single dose pharmacokinetic study after oral and intravenous administration in male rats (serum, HPLC-UV); type: in vivo, Sprague-Dawley rats; details: Sprague-Dawley, rat; intravenous 18 mg kg^−1, male rats, serum, mean ± SD, N = 4
observable: C0 (ng/mL)
Could you give me the number in ng/mL? Just the number is fine.

Data request: State the recorded C0 for this entry: C=C(c1ccc(OC(C)(C)CO)cc1)C1COC2(OO1)C1CC3CC(C1)CC2C3 (stereo not shown) [97/63]
Data returned: 1800

###

assay: Single dose pharmacokinetic study after oral and intravenous administration in male rats (serum, HPLC-UV); assay type: in vivo, Sprague-Dawley rats; details: Sprague-Dawley, rat, serum; intravenous 18 mg kg^−1, male rats; read-out: Vd
observable: Vd (L/kg)
Could you give me the number in L/kg? Just the number is fine.

Data request: State the recorded Vd for this entry: C=C(c1ccc(OC(C)(C)CO)cc1)C1COC2(OO1)C1CC3CC(C1)CC2C3 (stereo not shown)
Data returned: 135
